# Protocol Details: Diluent selection study: solubility of metolazone in diluent mixtures
# Assay type: physicochemical
# Recorded Conditions: 40% PEG-400 and 0.4% Kolliphor HS-15 in phosphate buffer, pH 7.5, aqueous with cosolvent or surfactant or cyclodextrin, thermodynamic from solid, Ex: III-3, 031C: 40% PEG-400 + Kolliphor HS-15 0.4% + Phosphate buffer pH 7.5; read-out: Solubility
Parameter: solubility (µg/mL)

INSERT INTO assay_data (compound, parameter, unit_abbreviation, measured_result) VALUES
  ('Cc1ccccc1N1C(=O)c2cc(S(N)(=O)=O)c(Cl)cc2NC1C (stereo not shown) [Metolazone]', 'solubility', 'µg/mL', 2160);

----------
# Protocol Details: Saturation solubility of metolazone in TBA:water ratios
# Type: physicochemical
# Recorded Conditions: tertiary butyl alcohol/water mixture, aqueous with cosolvent or surfactant or cyclodextrin, thermodynamic from solid, 028C: 40% Tertiary butyl alcohol and 60% water mixture [40:60]; read-out: Solubility of each trial
Parameter: solubility (µg/mL)

INSERT INTO measurements (compound, measured_result) VALUES
  ('Cc1ccccc1N1C(=O)c2cc(S(N)(=O)=O)c(Cl)cc2NC1C (stereo not shown)', 2170);

----------
# Protocol Details: Diluent selection study: solubility of metolazone in diluent mixtures
# Format: physicochemical
# Recorded Conditions: 40% PEG-400 in Tris buffer, pH 7.5, aqueous with cosolvent or surfactant or cyclodextrin, thermodynamic from solid, Ex: III-2, 031B: 40% PEG-400 + Tris buffer pH 7.5; read-out: Solubility
Parameter: solubility (µg/mL)

INSERT INTO assay_data (compound, measured_result) VALUES
  ('Cc1ccccc1N1C(=O)c2cc(S(N)(=O)=O)c(Cl)cc2NC1C (stereo not shown) [Metolazone]', 1280);

----------
# Protocol Details: Saturation solubility of metolazone in TBA:water ratios
# Type: physicochemical
# Recorded Conditions: tertiary butyl alcohol/water mixture, aqueous with cosolvent or surfactant or cyclodextrin, thermodynamic from solid, 028B: 30% Tertiary butyl alcohol and 70% water mixture [30:70]; read-out: Solubility of each trial
Parameter: solubility (µg/mL)

INSERT INTO measurements (compound, unit_abbreviation, measured_result) VALUES
  ('Cc1ccccc1N1C(=O)c2cc(S(N)(=O)=O)c(Cl)cc2NC1C (stereo not shown)', 'µg/mL', 1050);

----------
# Protocol Details: Diluent selection study: solubility of metolazone in diluent mixtures
# Assay type: physicochemical
# Recorded Conditions: tertiary butyl alcohol/water for injection mixture, aqueous with cosolvent or surfactant or cyclodextrin, thermodynamic from solid, Ex: III-5, 031E: 50% Tertiary butyl alcohol and 50% Water for injection; read-out: Solubility
Parameter: solubility

INSERT INTO results (compound, measured_result) VALUES
  ('Cc1ccccc1N1C(=O)c2cc(S(N)(=O)=O)c(Cl)cc2NC1C (stereo not shown) [Metolazone]', '3120 µg/mL');

----------
# Protocol Details: Diluent selection study: solubility of metolazone in diluent mixtures
# Type: physicochemical
# Recorded Conditions: 40% PEG in buffer, aqueous with cosolvent or surfactant or cyclodextrin, thermodynamic from solid, 40% PEG in all tested buffers; API with particle size D90<10 microns; read-out: solubility
Parameter: solubility

INSERT INTO results (molecule, measured_result) VALUES
  ('Cc1ccccc1N1C(=O)c2cc(S(N)(=O)=O)c(Cl)cc2NC1C (stereo not shown)', '> 1.2 mg/mL');

----------
# Protocol Details: Saturation solubility of metolazone in TBA:water ratios
# Type: physicochemical
# Recorded Conditions: tertiary butyl alcohol/water mixture, aqueous with cosolvent or surfactant or cyclodextrin, thermodynamic from solid, 028A: 20% Tertiary butyl alcohol and 80% water mixture [20:80]; read-out: Solubility of each trial
Parameter: solubility (µg/mL)

INSERT INTO measurements (compound, parameter, unit_abbreviation, measured_result) VALUES
  ('Cc1ccccc1N1C(=O)c2cc(S(N)(=O)=O)c(Cl)cc2NC1C (stereo not shown)', 'solubility', 'µg/mL', 267);
